assay: physchem; conditions: water, 0.15 m kcl, pKa (second listed)
attribute measured: pKa
Give bare numbers.

Problem: Fill in the blank: the reported pKa of N[C@@H](Cc1cc(I)c(Oc2ccc(O)c(I)c2)c(I)c1)C(=O)O is ____.
Result: 8.07

====

test: Log D at pH 7.4 (octanol/water); type: physicochemical; conditions: Method Potentiometric, read-out: Log D7.4
attribute measured: logD
Numbers only.

Problem: Fill in the blank: the reported logD of N[C@@H](Cc1cc(I)c(Oc2ccc(O)c(I)c2)c(I)c1)C(=O)O [Triiodothyronine] is ____.
Result: 2.8

====

assay: physchem; details: water, 0.15 m kcl, pKa (first listed)
attribute measured: pKa
One number for each entry.

Problem: Fill in the blank: the reported pKa of N[C@@H](Cc1cc(I)c(Oc2ccc(O)c(I)c2)c(I)c1)C(=O)O is ____.
Result: 8.41

Taken from patent US20060141054A1.
